# SUBJECT OF TEST: T1, Erh1 E85A (S. pombe, UniProt G2TRN4 1-104, E85A)
# T1 construct: Erh1, S. pombe, residues 1-104, point mutant made with the MutanBEST kit; source: E. coli BL21 (Gold), purified (Ni-chelating resin, size-exclusion chromatography)
# T1 sequence (looked up): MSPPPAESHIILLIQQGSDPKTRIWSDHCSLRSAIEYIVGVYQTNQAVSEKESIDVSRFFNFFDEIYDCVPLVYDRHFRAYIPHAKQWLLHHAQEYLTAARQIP
# TEST DETAILS: ITC; SUMO-tagged Mmi1 peptides titrated into Erh1 in the sample cell; MicroCal iTC200, 293 K; 20 mM Tris-HCl pH 7.5, 150 mM NaCl; single-site binding model
# CONDITION SET: both partners purified
PROPERTY: pKd
Scale: negative log10 of molar concentration, which is what pKd denotes.

Prompt line: Returns the measured pKd for the input binder. Input: GKYDFSRHCTDYGHSYEWPYFRSLRRES (domain or fragment, S. pombe, UniProt O74958 95-122, looked up, SUMO stands after the His6 tag at the N-terminus; also called Mmi1wt; source: E. coli BL21 (Gold), purified (Ni-chelating resin, size-exclusion chromatography); not shown: SUMO, N-terminal, kept) [SUMO-tagged Mmi1 95-122]
Response line: 5.67
